# Measured On: Mcl-1/Bim (Homo sapiens)
# Sequence (Q07820 whole entry): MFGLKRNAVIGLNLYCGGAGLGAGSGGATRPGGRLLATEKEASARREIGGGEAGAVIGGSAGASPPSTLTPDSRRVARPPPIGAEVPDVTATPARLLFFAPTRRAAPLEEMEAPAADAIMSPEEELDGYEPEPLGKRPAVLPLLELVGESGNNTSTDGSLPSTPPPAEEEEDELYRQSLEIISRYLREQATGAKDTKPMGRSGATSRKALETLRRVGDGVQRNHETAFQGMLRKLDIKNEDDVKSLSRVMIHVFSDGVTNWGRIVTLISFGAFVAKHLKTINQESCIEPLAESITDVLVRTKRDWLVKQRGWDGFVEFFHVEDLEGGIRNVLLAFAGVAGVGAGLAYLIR
# Assay: Mcl-1/Bim ELISA (GST-Mcl-1 binding to biotinylated Bim BH3 peptide)
# Condition Summary: Table 2-A; n ≥ 3; read-out: Mcl-1/Bim IC50 (average ± SEM)
The label is y for IC50 below 9 µM and n for IC50 equal to or exceeding 9 µM.

- Molecule: "O=C(O)Cn1cc(-c2cc(O)c(C(=O)c3[nH]c(Cl)c(Cl)c3-n3c(C(=O)c4cc(Cl)c(-c5cn(CC(=O)O)nn5)cc4O)cc(Cl)c3Cl)cc2Cl)nn1 [Compound 1-19]"
  Measured On: "Mcl-1/Bim (Homo sapiens)"
  Assigned Label: "y"
- Molecule: "CCOC(=O)Cn1cc(-c2cc(O)c(C(=O)c3[nH]c(Cl)c(Cl)c3-n3c(C(=O)c4cc(Cl)c(-c5cn(CC(=O)OCC)nn5)cc4O)cc(Cl)c3Cl)cc2Cl)nn1 [Compound 1-17]"
  Measured On: "Mcl-1/Bim (Homo sapiens)"
  Assigned Label: "y"
- Molecule: "O=C(O)Cn1cc(-c2ccc(C(=O)c3[nH]c(Cl)c(Cl)c3-n3c(C(=O)c4ccc(-c5cn(CC(=O)O)nn5)cc4O)cc(Cl)c3Cl)c(O)c2)nn1 [Compound 1-26]"
  Measured On: "Mcl-1/Bim (Homo sapiens)"
  Assigned Label: "n"
- Molecule: "CCOC(=O)Cn1cc(-c2ccc(C(=O)c3[nH]c(Cl)c(Cl)c3-n3c(C(=O)c4ccc(-c5cn(CC(=O)OCC)nn5)cc4O)cc(Cl)c3Cl)c(O)c2)nn1 [Compound 1-24]"
  Measured On: "Mcl-1/Bim (Homo sapiens)"
  Assigned Label: "n"
